B1: RHOBTB2 (parent)
chain: HHHHGRDFLLRAASFDVCESVDEA

variants of: B1; assay: protein stability index of a GFP-peptide fusion (GPS, HEK-293T) (PSI 1-6); higher = more stable; settings: c terminus: a fixed tail appended;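 further: lentivirally expressed fusions sorted by FACS into six bins by GFP to DsRed ratio, PSI derived from sequencing read proportions per bin multiplied by bin number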
// label = satisfied if protein stability index is not less than 4, otherwise not satisfied

Sample answers from the record:
[[record]]
mutant_code = "H3L"
cat = "not satisfied"

[[record]]
mutant_code = "A12F"
cat = "not satisfied"

[[record]]
mutant_code = "G5E"
cat = "satisfied"

[[record]]
mutant_code = "L10G"
cat = "satisfied"

[[record]]
mutant_code = "H4A"
cat = "not satisfied"

[[record]]
mutant_code = "A13M"
cat = "not satisfied"


Exercise: Does the variant `A13D` have recorded protein stability index that is 4 or more?
Key: satisfied

Exercise: Likewise for `R6C` ?
Key: not satisfied

Exercise: Here is the next variant: `H4K`
Key: not satisfied

Exercise: Field entry: `H3K`
Key: not satisfied
